Origin of the recorded values: PubChem BioAssay (Tox21)

- tested_system: Cytochrome P450 2C9 (Homo sapiens) (UniProt P11712)
- Sequence (P11712 whole entry, looked up): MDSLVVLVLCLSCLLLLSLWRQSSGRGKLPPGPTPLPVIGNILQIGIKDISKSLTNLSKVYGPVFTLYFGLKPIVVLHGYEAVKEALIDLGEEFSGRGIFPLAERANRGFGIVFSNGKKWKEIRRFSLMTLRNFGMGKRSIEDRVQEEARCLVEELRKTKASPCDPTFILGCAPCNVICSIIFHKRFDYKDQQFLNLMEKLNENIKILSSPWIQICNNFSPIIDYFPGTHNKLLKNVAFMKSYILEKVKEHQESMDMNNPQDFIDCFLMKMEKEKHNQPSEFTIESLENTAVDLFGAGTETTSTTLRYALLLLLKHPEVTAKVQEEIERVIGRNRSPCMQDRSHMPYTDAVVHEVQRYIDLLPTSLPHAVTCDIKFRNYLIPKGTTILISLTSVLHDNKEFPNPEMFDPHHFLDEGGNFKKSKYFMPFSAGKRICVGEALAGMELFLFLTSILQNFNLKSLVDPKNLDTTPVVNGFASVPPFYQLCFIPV
- test_description: Cytochrome P450 Family 2 Subfamily C Member 9 (CYP2C9) small molecule antagonists: luciferase reporter qHTS assay (AID 1671198); further: nearly all actives have a fitted effect of over 50% in size
- test_conditions: P450-Glo CYP2C9 enzyme assay, luciferin luminescence; series mostly up to 115 µM
Records with an inconclusive call do not appear. The source made the active and inactive calls. The call rests on the fitted dose curve; in most records, active means well fitted inhibition curve with a large enough effect in the repeat runs; inconclusive means weak or mixed curves; inactive means no such curve, though single readings can be large or run the other way.
Possible outcomes: YES (active), NO (inactive)

>  <compound>
O=C(NC(=O)c1c(F)cccc1F)Nc1ccc(Oc2ccc(C(F)(F)F)cc2Cl)cc1F

>  <category>
YES

$$$$
>  <compound>
[Cl][Hg][c]1ccccc1

>  <category>
YES

$$$$
>  <compound>
CSC(C)(C)/C=N/O

>  <category>
NO

$$$$
>  <compound>
Nc1ccc(N=Nc2ccccc2)cc1

>  <category>
YES

$$$$
>  <compound>
Cc1ccccc1OP(=O)(Oc1ccccc1C)Oc1ccccc1C

>  <category>
YES

$$$$
>  <compound>
c1ccc(Nc2ccc(Nc3ccccc3)cc2)cc1

>  <category>
YES

$$$$
>  <compound>
CC1(C)[C@H](/C=C2\CCSC2=O)[C@@H]1C(=O)OCc1coc(Cc2ccccc2)c1

>  <category>
YES

$$$$
>  <compound>
N#Cc1ccc(N(CC(N)=O)CC(F)(F)F)cc1C(F)(F)F

>  <category>
YES

$$$$
>  <compound>
CC#C[C@]1(O)CC[C@H]2[C@@H]3C[C@H](C)C4=CC(=O)CC[C@]4(C)[C@H]3CC[C@@]21C

>  <category>
YES

$$$$
>  <compound>
CCOP(=S)(OCC)SC(CCl)N1C(=O)c2ccccc2C1=O (centres undefined)

>  <category>
YES

$$$$
>  <compound>
O=C(N[C@@H]1N=C(c2ccccc2F)c2cccc3c2N(CC3)C1=O)c1cc2ccccc2[nH]1

>  <category>
YES

$$$$
>  <compound>
CC(C)C(Br)C(=O)NC(N)=O (centres undefined)

>  <category>
NO

$$$$
>  <compound>
CC1=C2C[C@H]3[C@@H](CC=C4C[C@@H](O)CC[C@@]43C)[C@@H]2CC[C@]12O[C@@H]1C[C@H](C)CN[C@H]1[C@H]2C

>  <category>
NO

$$$$
>  <compound>
O=Cc1ccccc1

>  <category>
NO

$$$$
>  <compound>
C#CCO

>  <category>
NO

$$$$
>  <compound>
CCC(C)Nc1c([N+](=O)[O-])cc(C(C)(C)C)cc1[N+](=O)[O-] (centres undefined)

>  <category>
YES

$$$$
>  <compound>
CCC1COC(Cn2cncn2)(c2ccc(Cl)cc2Cl)O1 (centres undefined)

>  <category>
YES

$$$$
>  <compound>
CC(Cc1ccc2c(c1)OCO2)NO (centres undefined)

>  <category>
YES

$$$$
>  <compound>
O=C(NC(=O)c1ccccc1Cl)Nc1ccc(OC(F)(F)F)cc1

>  <category>
NO

$$$$
>  <compound>
CCCN

>  <category>
NO

$$$$
>  <compound>
CNC(C)(C)Cc1ccccc1

>  <category>
NO

$$$$
>  <compound>
Cc1c([N+](=O)[O-])c(C)c([N+](=O)[O-])c(C(C)(C)C)c1[N+](=O)[O-]

>  <category>
NO

$$$$
>  <compound>
C[C@]12Cc3cn[nH]c3C[C@@H]1CC[C@@H]1[C@@H]2CC[C@@]2(C)[C@H]1CC[C@]2(C)O

>  <category>
YES

$$$$
>  <compound>
Cc1nn(-c2cc(NS(C)(=O)=O)c(Cl)cc2Cl)c(=O)n1C(F)F

>  <category>
YES

$$$$
>  <compound>
c1cc[n+]2c(c1)-c1cccc[n+]1CC2

>  <category>
NO

$$$$
>  <compound>
COC(=O)N(OC)c1ccccc1COc1ccn(-c2ccc(Cl)cc2)n1

>  <category>
YES

$$$$
>  <compound>
NC(=O)C(Cl)Cl

>  <category>
NO

$$$$
>  <compound>
CNC(=O)/C=C(\C)OP(=O)(OC)OC

>  <category>
NO

$$$$
>  <compound>
CC1CCCC1

>  <category>
YES

$$$$
>  <compound>
C[C@H]1[C@H](c2ccc(Cl)cc2)SC(=O)N1C(=O)NC1CCCCC1

>  <category>
YES

$$$$
>  <compound>
CCCCC(CC)COC(=O)c1ccccc1C(=O)OCC(CC)CCCC (centres undefined)

>  <category>
YES

$$$$
>  <compound>
CNC(=O)CSP(=O)(OC)OC

>  <category>
NO

$$$$
>  <compound>
Cc1cc2c3c(c1)C(c1ccccc1)=N[C@@H](NC(=O)c1ccncc1)C(=O)N3CC2

>  <category>
YES

$$$$
>  <compound>
CN1[C@@H]2CC[C@H]1CC(O)C2 (some centres undefined)

>  <category>
NO

$$$$
>  <compound>
N#CC(C#N)=NNc1cccc(Cl)c1

>  <category>
YES

$$$$
>  <compound>
Nc1ccccc1-c1ccccc1

>  <category>
YES

$$$$
>  <compound>
O=P(Cl)(Cl)Cl

>  <category>
NO

$$$$
>  <compound>
O=[N+]([O-])c1ccccc1-c1ccccc1

>  <category>
YES

$$$$
>  <compound>
Clc1ccc(C2(Cn3cncn3)OCCO2)c(Cl)c1

>  <category>
YES

$$$$

* * *

- test_description: qHTS assay to identify small molecule agonists of the NFkB signaling pathway - cell viability counter screen (AID 1159515); further: nearly all actives have a fitted effect of over 55% in size
- test_conditions: NFkB-bla ME-180 viability, CellTiter-Glo luminescence, 5 h; series mostly up to 61 µM
Records with an inconclusive call do not appear. Calls of active or inactive are those of the source. The call rests on the fitted dose curve.

>  <chemical_structure>
CN/C(=N\[N+](=O)[O-])NCc1cnc(Cl)s1

>  <outcome>
inactive

$$$$
>  <chemical_structure>
Brc1cccc(-c2ccccc2)c1

>  <outcome>
inactive

$$$$
>  <chemical_structure>
O=P(Cl)(Cl)Cl

>  <outcome>
inactive

$$$$

* * *

- test_description: qHTS assay to identify small molecule agonists of the constitutive androstane receptor (CAR) signaling pathway - cell viability counter screen (AID 1224836); further: nearly all actives have a fitted effect of over 45% in size
- test_conditions: HepG2-CYP2B6-hCAR viability, CellTiter-Fluor, 23 h, PK11195 added to every well; series mostly up to 92.4 µM
Inconclusive results are not listed. The source made the active and inactive calls. The call rests on the fitted dose curve; in most records, active means well fitted cell-killing curve with a large enough effect in the repeat runs; inconclusive means weak or mixed curves, or effect the other way; inactive means flat fitted curve, though single readings scatter.
Possible outcomes: Yes for active, No for inactive

>  <molecule>
CC(=O)[O-].CC(=O)[O-].[Co+2]

>  <category>
No

$$$$
>  <molecule>
CCCCn1cc[n+](C)c1.[Cl][Fe-]([Cl])([Cl])[Cl]

>  <category>
No

$$$$
>  <molecule>
CC(=O)C(Cl)C(=O)N(C)C (stereo not given)

>  <category>
No

$$$$
>  <molecule>
C[C@]12Cc3cn[nH]c3C[C@@H]1CC[C@@H]1[C@@H]2CC[C@@]2(C)[C@H]1CC[C@]2(C)O

>  <category>
No

$$$$
>  <molecule>
CNC(=O)Oc1cc(C)cc(C(C)C)c1

>  <category>
No

$$$$
>  <molecule>
CN(C)c1ccc(N)cc1

>  <category>
Yes

$$$$
>  <molecule>
Cc1nn(-c2cc(NS(C)(=O)=O)c(Cl)cc2Cl)c(=O)n1C(F)F

>  <category>
No

$$$$
>  <molecule>
CC1CCCC1

>  <category>
No

$$$$
>  <molecule>
N#CSCc1ccccc1

>  <category>
No

$$$$
>  <molecule>
C[C@]12CC[C@H]3[C@@H](CCC4=CC(=O)CC[C@@H]43)[C@@H]1CC[C@@H]2OC(=O)CCc1ccco1

>  <category>
No

$$$$

* * *

- test_description: A CellTox Green Cytotoxicity Assay to monitor cytotoxicity in HepG2 cells - 8 hour (AID 1224890); further: nearly all actives have a fitted effect of over 45% in size; further: potency means the concentration at half of the fitted maximal effect
- test_conditions: CellTox Green fluorescence; series mostly up to 76.8 µM
Records with an inconclusive call do not appear. Activity calls are given as the source filed them. Calls follow the shape of the dose curve; as a rule, active = well fitted activation curve with a large enough effect in the repeat runs; inconclusive = weak or mixed curves; inactive = flat fitted curve, though single readings scatter.
observation_type: Potency

>  <chemical_structure>
COP(=S)(OC)Oc1ccc([N+](=O)[O-])c(C)c1

>  <observation_type>
Potency

>  <assay_value>
inactive

$$$$
>  <chemical_structure>
CO/N=C(/C1=NOCCO1)c1ccccc1Oc1ncnc(Oc2ccccc2Cl)c1F

>  <observation_type>
Potency

>  <assay_value>
inactive

$$$$
>  <chemical_structure>
Brc1ccc(Oc2ccc(Br)cc2Br)c(Br)c1

>  <observation_type>
Potency

>  <assay_value>
inactive

$$$$
>  <chemical_structure>
O=[N+]([O-])C(Br)Br

>  <observation_type>
Potency

>  <assay_value>
inactive

$$$$
>  <chemical_structure>
Cc1nn(-c2cc(NS(C)(=O)=O)c(Cl)cc2Cl)c(=O)n1C(F)F

>  <observation_type>
Potency

>  <assay_value>
inactive

$$$$
>  <chemical_structure>
[F][Sn]([c]1ccccc1)([c]1ccccc1)[c]1ccccc1

>  <observation_type>
Potency

>  <assay_value>
2450 nM (active)

$$$$
>  <chemical_structure>
CCCN

>  <observation_type>
Potency

>  <assay_value>
inactive

$$$$
>  <chemical_structure>
[O-][Cl+3]([O-])([O-])O

>  <observation_type>
Potency

>  <assay_value>
inactive

$$$$
>  <chemical_structure>
Oc1cccc(Cl)c1Cl

>  <observation_type>
Potency

>  <assay_value>
inactive

$$$$
>  <chemical_structure>
C1=CCC=C1

>  <observation_type>
Potency

>  <assay_value>
inactive

$$$$
>  <chemical_structure>
C=CC(=O)[O][Sn]([CH2]CCC)([CH2]CCC)[CH2]CCC

>  <observation_type>
Potency

>  <assay_value>
977 nM (active)

$$$$
>  <chemical_structure>
Nc1ccc(N=Nc2ccccc2)cc1

>  <observation_type>
Potency

>  <assay_value>
inactive

$$$$
>  <chemical_structure>
C[C@]12CC[C@H]3[C@@H](CCC4=CC(=O)CC[C@@H]43)[C@@H]1CC[C@@H]2OC(=O)CCc1ccco1

>  <observation_type>
Potency

>  <assay_value>
inactive

$$$$
>  <chemical_structure>
O=C(CCCCl)c1ccc(F)cc1

>  <observation_type>
Potency

>  <assay_value>
inactive

$$$$
>  <chemical_structure>
Cc1ccccc1OP(=O)(Oc1ccccc1C)Oc1ccccc1C

>  <observation_type>
Potency

>  <assay_value>
inactive

$$$$
>  <chemical_structure>
CC[C@H](C)[C@H]1O[C@]2(C=C[C@@H]1C)C[C@@H]1C[C@@H](C/C=C(\C)[C@@H](O[C@H]3C[C@H](OC)[C@@H](O[C@H]4C[C@H](OC)[C@@H](NC)[C@H](C)O4)[C@H](C)O3)[C@@H](C)/C=C/C=C3\CO[C@@H]4[C@H](O)C(C)=C[C@@H](C(=O)O1)[C@]34O)O2

>  <observation_type>
Potency

>  <assay_value>
17400 nM (active)

$$$$
